Measured values drawn from ChEMBL document CHEMBL1142385 for this set.

# study-target: Carboxypeptidase A1 (Homo sapiens, UniProt P15085)
# Sequence (P15085 whole entry): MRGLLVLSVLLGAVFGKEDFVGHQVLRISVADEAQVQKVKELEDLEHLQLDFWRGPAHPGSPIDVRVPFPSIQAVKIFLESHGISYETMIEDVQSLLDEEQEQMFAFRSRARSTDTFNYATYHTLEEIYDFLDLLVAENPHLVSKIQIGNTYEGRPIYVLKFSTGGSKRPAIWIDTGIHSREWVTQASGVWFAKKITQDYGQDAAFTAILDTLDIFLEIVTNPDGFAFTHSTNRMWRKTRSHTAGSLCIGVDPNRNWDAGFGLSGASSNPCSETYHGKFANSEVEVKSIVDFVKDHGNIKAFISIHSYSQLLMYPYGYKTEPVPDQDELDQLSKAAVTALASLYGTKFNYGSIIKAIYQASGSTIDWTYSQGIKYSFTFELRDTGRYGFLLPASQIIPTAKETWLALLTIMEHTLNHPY
readout-kind: Ki (µM)
The reply should contain only the number, in µM.

# return recorded Ki for input CC(C)CC(C[N+](=O)[O-])C(=O)O (racemic) 2.08

Query Ki for O=C(O)C(Cc1ccccc1)C[N+](=O)[O-] (racemic) 0.79

Indicate the recorded Ki value for this molecule: O=C(O)[C@@H](Cc1ccccc1)C[N+](=O)[O-] 68

Using the record for C=CCC(C[N+](=O)[O-])C(=O)O (racemic) , state its measured Ki. 62.6
